FYI, the data here is from ChEMBL document CHEMBL1201862.

# System: SK-MEL-5
# ASSAY INFO: NCI tumour cell line growth inhibition, 48 h
The source made the active and inactive calls. Rule as the data show it: active = GI50 up to about 1.1 µM and inactive = higher.
Item-by-item account of GI50

Completed entries (count: 5):
[[record]]
molecule = "COC1C(O)CC(OC2C(C)OC(Oc3cc(O)c4c(O)c5c(cc4c3)C[C@@H]([C@H](OC)C(=O)[C@@H](O)[C@@H](C)O)[C@H](OC3CC(OC4CC(OC6CC(C)(O)C(O)C(C)O6)C(O)C(C)O4)C(O)C(C)O3)C5=O)CC2OC(C)=O)OC1C (some centres undefined)"
target_of_assay = "SK-MEL-5"
parameter = "GI50"
result = "17.1 µM (inactive)"

[[record]]
molecule = "CC(=O)Nc1ccc(Nc2cc(O)nc(O)n2)cc1"
target_of_assay = "SK-MEL-5"
parameter = "GI50"
result = "> 100 µM (inactive)"

[[record]]
molecule = "CC12CC3(C)CC(C)(C1)CC(N=[N+]=[N-])(C2)C3"
target_of_assay = "SK-MEL-5"
parameter = "GI50"
result = "> 100 µM (inactive)"

[[record]]
molecule = "CC(C)[Si](OC12CCC(CC1O)CC2CO)(C(C)C)C(C)C (centres undefined)"
target_of_assay = "SK-MEL-5"
parameter = "GI50"
result = "18.3 µM (inactive)"

[[record]]
molecule = "CCN(CC)c1c(N(CC)CC)c(=O)c1=O"
target_of_assay = "SK-MEL-5"
parameter = "GI50"
result = "17.4 µM (inactive)"


Query: State its GI50 for this molecule: Cc1[nH]c(=O)[nH]c(=O)c1/C=C/C(=O)NC(CO)C[S+]([O-])C[S+](C)[O-] (centres undefined)
Reply: 18 µM (inactive)

---

# System: OVCAR-5
# ASSAY INFO: NCI tumour cell line growth inhibition, 48 h
Activity calls are given as the source filed them. Rule as the data show it: active = GI50 up to about 1.1 µM and inactive = higher.
PARAMETER: GI50

[[record]]
molecule = "CC1=CCC[C@@](C)(O)[C@@H]2C[C@H]3C(CSc4ccccc4)C(=O)O[C@H]3[C@@H](O2)[C@H](C)CCC1 (some centres undefined)"
target_of_assay = "OVCAR-5"
parameter = "GI50"
result = "15.9 µM (inactive)"

[[record]]
molecule = "COC(=O)C1(Cc2ccc3c(c2)CCC3)Cc2cc3c(cc2C1)CCC3"
target_of_assay = "OVCAR-5"
parameter = "GI50"
result = "55.6 µM (inactive)"

[[record]]
molecule = "Cc1cc(C)c2c(n1)S(=O)(=O)N(CCCN1CCN(c3cccc(C(F)(F)F)c3)CC1)C(C(=O)c1ccccc1)=C2O"
target_of_assay = "OVCAR-5"
parameter = "GI50"
result = "7.36 µM (inactive)"


Query: State its GI50 for this molecule: "COc1ccc(Nc2nc(N)c(C(=O)c3ccc(Cl)cc3)s2)cc1"
Reply: 0.505 µM (active)

Query: State its GI50 for this molecule: "O=C(CCCNC(=O)OCc1ccccc1)OCc1ccc2c(c1)C(=O)c1ccccc1C2=O"
Reply: > 100 µM (inactive)

---

# System: DLD-1
# ASSAY INFO: NCI tumour cell line growth inhibition, 48 h
Active and inactive are the calls of the source. No stated cut-off is given here; in the data, active = GI50 up to about 1.1 µM and inactive = higher.
Choose one outcome from this list and give only that: yes (1) for active, no (0) for inactive

Solved cases (5 shown):
[[record]]
molecule = "CC(=O)OCC1=C(COC(C)=O)C(=O)c2c(O)ccc(O)c2C1=O"
class_assignment = "no (0)"

[[record]]
molecule = "Cc1ccc(N2C(=O)C3C=CC(n4[nH]c(=O)n(Cc5ccccc5)c4=O)CC3C2=O)cc1 (configuration not stated)"
class_assignment = "no (0)"

[[record]]
molecule = "Clc1ccc2c(Cl)ncnc2c1I"
class_assignment = "no (0)"

[[record]]
molecule = "O=C1c2cccc3cc([N+](=O)[O-])cc(c23)C(=O)N1CCNCCNCCNCCN1C(=O)c2cccc3cc([N+](=O)[O-])cc(c23)C1=O"
class_assignment = "yes (1)"

[[record]]
molecule = "CCN(CCCl)CCCNc1c2ccccc2nc2ccc(OC)cc12"
class_assignment = "yes (1)"


Query: Would you mind telling me which call this test gave "O=C(CCCNC(=O)OCc1ccccc1)OCc1ccc2c(c1)C(=O)c1ccccc1C2=O" ?
Reply: no (0)

Query: Would you mind telling me which call this test gave "Cc1ccc(C(=O)N(Cc2ccccc2)Cc2ccccc2)cc1/N=N/N(C)C" ?
Reply: no (0)

Query: Would you mind telling me which call this test gave "Nc1nc(N)c(CCCCc2ccccc2)c(N)n1" ?
Reply: no (0)
